molecular target: human FXIa (Homo sapiens (Human), UniProt P03951); test: In vitro activated factor XI (FXIa) inhibition test; details: 0.35 μg/mL human FXIa, substrate S-2366 300 μmol/L, 37° C., 10 minutes, OD 405 nm; read-out: FXIa inhibitory activity IC50
Sequence (P03951 388-625): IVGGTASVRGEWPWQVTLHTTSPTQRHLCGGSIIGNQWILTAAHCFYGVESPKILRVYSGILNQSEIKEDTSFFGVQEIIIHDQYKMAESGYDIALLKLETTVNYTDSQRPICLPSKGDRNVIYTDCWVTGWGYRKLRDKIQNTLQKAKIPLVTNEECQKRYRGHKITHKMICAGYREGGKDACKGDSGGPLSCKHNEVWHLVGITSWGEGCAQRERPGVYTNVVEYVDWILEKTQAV
Sequence (P03951 19-387 partner): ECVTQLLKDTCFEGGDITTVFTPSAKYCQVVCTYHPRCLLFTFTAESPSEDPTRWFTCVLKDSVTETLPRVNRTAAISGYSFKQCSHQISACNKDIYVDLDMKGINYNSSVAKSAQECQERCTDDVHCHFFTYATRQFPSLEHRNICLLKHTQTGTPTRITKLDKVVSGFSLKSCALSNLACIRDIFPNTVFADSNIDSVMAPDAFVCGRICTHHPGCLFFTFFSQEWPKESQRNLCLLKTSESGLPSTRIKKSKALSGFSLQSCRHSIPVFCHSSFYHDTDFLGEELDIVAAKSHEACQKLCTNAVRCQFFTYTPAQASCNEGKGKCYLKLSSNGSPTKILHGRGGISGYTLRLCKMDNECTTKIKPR
assayMetric: IC50 (nM)
Express the result in nM but write the number alone.

* N[C@H](CF)[C@H]1CC[C@H](C(=O)N2CC[C@H](c3ccc(F)cc3)[C@H]2C(=O)Nc2ccc3[nH]c(C(=O)O)cc3c2)CC1 | 33

Identify the measured IC50 of NC(CF)[C@H]1CC[C@H](C(=O)N2CC[C@@H](c3ccc(F)cc3)[C@H]2C(=O)Nc2ccc3[nH]c(C(=O)O)cc3c2)CC1 (some centres unmarked) for human FXIa (Homo sapiens (Human), UniProt P03951).
30

Identify the measured IC50 of COc1ccc([C@H]2CCN(C(=O)[C@H]3CC[C@H]([C@H](N)CF)CC3)[C@@H]2C(=O)Nc2ccc3[nH]c(C(=O)O)cc3c2)cc1 for human FXIa (Homo sapiens (Human), UniProt P03951).
76

Identify the measured IC50 of N[C@H](CF)[C@H]1CC[C@H](C(=O)N2CC[C@@H](c3ccccc3)[C@H]2C(=O)Nc2ccc3[nH]c(C(=O)O)c(Cl)c3c2)CC1 for human FXIa (Homo sapiens (Human), UniProt P03951).
60

Identify the measured IC50 of N[C@H](CF)[C@H]1CC[C@H](C(=O)N2CC[C@@H](C3CCCCC3)[C@H]2C(=O)Nc2ccc3[nH]c(C(=O)O)cc3c2)CC1 for human FXIa (Homo sapiens (Human), UniProt P03951).
6

Identify the measured IC50 of NC[C@H]1CC[C@H](C(=O)N2CCC(c3ccccc3)[C@H]2C(=O)Nc2ccc3[nH]c(C(=O)O)cc3c2)CC1 (some centres unmarked) for human FXIa (Homo sapiens (Human), UniProt P03951).
9

Identify the measured IC50 of CN(C(=O)C1C(c2ccccc2)CCN1C(=O)[C@H]1CC[C@H](CN)CC1)c1ccc2[nH]c(C(=O)O)cc2c1 (some centres unmarked) for human FXIa (Homo sapiens (Human), UniProt P03951).
125

Identify the measured IC50 of Cc1c(C(=O)O)[nH]c2ccc(NC(=O)[C@@H]3[C@H](C4CCCCC4)CCN3C(=O)[C@H]3CC[C@H]([C@H](N)CF)CC3)cc12 for human FXIa (Homo sapiens (Human), UniProt P03951).
145

---

Experiment: Ester metabolism stabilization test: human liver stabilization test
Assay type: in vitro ADME
Conditions: human liver S9, NADPH, 37° C., 30 minutes
Experimental: A reaction solution prepared by mixing 5 μL of human liver S9 (manufactured by Xenotech, 20 mg/mL), 20 μL of 500 mmol/L Kpi (pH7.4), 40 μL of 5 mmol/L NADPH (manufactured by Oriental Yeast Co., Ltd.) aqueous solution, and 133 μL of ion exchange water was added to 2 μL of a DMSO solution containing 100 μmol/L test substance, and the thus obtained mixture was then incubated at 37° C. for 30 minutes. […]
# Residual percentage (%) Human liver S9 values compiled below
Express the result in % but write the number alone.

Some solved entries appear below for comparison.
* N[C@H](CF)[C@H]1CC[C@H](C(=O)N2CC[C@@H](C3CCCCC3)[C@H]2C(=O)Nc2ccc3oc(C(=O)OCC4CCOCC4)cc3c2)CC1 | 17
* Cc1oc(=O)oc1COC(=O)c1cc2cc(NC(=O)[C@@H]3[C@@H](c4ccccc4)CCN3C(=O)[C@H]3CC[C@H]([C@H](N)CF)CC3)ccc2[nH]1 | 18
* CC(OC(=O)OC1CCCCC1)OC(=O)c1cc2cc(NC(=O)[C@@H]3[C@@H](c4ccccc4)CCN3C(=O)[C@H]3CC[C@H]([C@H](N)CF)CC3)ccc2[nH]1 (some centres unmarked) | 4.9
* CCC(=O)OC(OC(=O)c1cc2cc(NC(=O)[C@@H]3[C@@H](c4ccccc4)CCN3C(=O)[C@H]3CC[C@H]([C@H](N)CF)CC3)ccc2[nH]1)C(C)C (some centres unmarked) | 5.6

May I ask what Residual percentage (%) Human liver S9 has been recorded for CC(C)OC(=O)OC(C)OC(=O)c1cc2cc(NC(=O)[C@@H]3[C@H](C4CCCCC4)CCN3C(=O)[C@H]3CC[C@H]([C@H](N)CF)CC3)ccc2[nH]1 (some centres unmarked) ?
47

May I ask what Residual percentage (%) Human liver S9 has been recorded for COC1CCC([C@@H]2CCN(C(=O)[C@H]3CC[C@H]([C@H](N)CF)CC3)[C@@H]2C(=O)Nc2ccc3oc(C(=O)OCC(C)C)cc3c2)CC1 (some centres unmarked) ?
45

May I ask what Residual percentage (%) Human liver S9 has been recorded for CC(C)C(=O)O[C@@H](C)OC(=O)N[C@H](CF)[C@H]1CC[C@H](C(=O)N2CC[C@@H](C3CCCCC3)[C@H]2C(=O)Nc2ccc(-c3nnn[nH]3)cc2)CC1 ?
3.5

May I ask what Residual percentage (%) Human liver S9 has been recorded for COCCCOC(=O)c1cc2cc(NC(=O)[C@@H]3[C@H](C4CCCCC4)CCN3C(=O)[C@H]3CC[C@H]([C@H](N)CF)CC3)ccc2o1 ?
5.8

Taken from patent US9758480B2.
